The origin of these recorded values is ChEMBL document CHEMBL4229446.

experiment.summary: Cmax in C57BL/6 mouse plasma at 10.8 mg/kg, iv administered as single dose measured 24 hrs by UPLC-MS/MS analysis
Assay type: ADME, organism-based
Set-up: dose 10.8 mg/kg, route intravenous
reported.metric: Cmax (ng/mL)
Answer format: numeric, ng/mL implied, no suffix.

Problem: Consider the molecule C#CCN(C)[C@H](C)Cc1ccccc1 and give its recorded Cmax.
Result: 569

====

experiment.summary: AUClast in C57BL/6 mouse brain at 23.4 mg/kg, po administered as single dose measured 24 hrs by UPLC-MS/MS analysis
Type: ADME, organism-based
Parameters: dose 23.4 mg/kg, route oral, time 0 - last
reported.metric: AUC(0-t) at 24 h (ng·h/mL)
Answer format: numeric, ng·h/mL implied, no suffix.

Problem: Consider the molecule CN(CC(=O)O)[C@H](CC#N)Cc1ccc(OCc2ccc(Cl)c(Cl)c2)cc1 and give its recorded AUC(0-t) at 24 h.
Result: 116

====

experiment.summary: AUClast in C57BL/6 mouse brain at 24.5 mg/kg, sc administered as single dose measured 24 hrs by UPLC-MS/MS analysis
Assay type: ADME, organism-based
Parameters: dose 24.5 mg/kg, time 0 - last, route subcutaneous
reported.metric: AUC(0-t) at 24 h (ng·h/mL)
Answer format: numeric, ng·h/mL implied, no suffix.

Problem: Consider the compound C[C@H](Cc1ccc(OCc2ccc(Br)c(Cl)c2)cc1)N(C)CC(=O)O and give its recorded AUC(0-t) at 24 h.
Result: 12900

====

What remaining at 1 h, 1 µM was measured for each of the following?
experiment.summary: Metabolic stability in cryopreserved mouse hepatocytes assessed as parent compound remaining at 1 uM after 60 mins by UPLC-MS/MS analysis
Assay type: ADME, cell-based, Hepatocyte
experimental.conditions: read-out: Stability

Problem: Consider the compound C[C@H](Cc1ccc(OCc2ccc(Cl)c(Cl)c2)cc1)N(C)CC(=O)O and give its recorded remaining at 1 h, 1 µM.
Result: ≥ 90%

Problem: Consider the compound C[C@H](Cc1ccc(OCc2ccc(Br)c(Cl)c2)cc1)N(C)CC(=O)O and give its recorded remaining at 1 h, 1 µM.
Result: ≥ 90%

Problem: Consider the compound CN(CC(=O)O)[C@H](CC#N)Cc1ccc(OCc2ccc(Cl)c(Cl)c2)cc1 and give its recorded remaining at 1 h, 1 µM.
Result: 64%

Problem: Consider the compound C[C@H](Cc1ccc(OCc2cccc(Cl)c2)cc1)N(C)CC(=O)O and give its recorded remaining at 1 h, 1 µM.
Result: ≥ 90%

====

experiment.summary: Efflux ratio of apparent permeability in MDCK-WT cells at 10 uM after 1 hr in absence of P-gp inhibitor verapamil by UPLC-MS/MS analysis
experimental.conditions: dog
reported.metric: efflux ratio at 1 h, 10 µM
Response field accepts a number only; no unit should be typed.

Problem: Consider the compound O=C(O)COCCN1CCN(C(c2ccccc2)c2ccc(Cl)cc2)CC1 (stereo not given) and give its recorded efflux ratio at 1 h, 10 µM.
Result: 3

Problem: Consider the compound C[C@H](Cc1ccc(OCc2cccc(Cl)c2)cc1)N(C)CC(=O)O and give its recorded efflux ratio at 1 h, 10 µM.
Result: 1.23

Problem: Consider the compound CN(CC(=O)O)[C@H](CC#N)Cc1ccc(OCc2ccc(Cl)c(Cl)c2)cc1 and give its recorded efflux ratio at 1 h, 10 µM.
Result: 1.07

Problem: Consider the compound C[C@H](Cc1ccc(OCc2ccc(Cl)c(Cl)c2)cc1)N(C)CC(=O)O and give its recorded efflux ratio at 1 h, 10 µM.
Result: 1.45

Problem: Consider the compound C[C@H](Cc1ccc(OCc2ccc(Br)c(Cl)c2)cc1)N(C)CC(=O)O and give its recorded efflux ratio at 1 h, 10 µM.
Result: 1.33

====

experiment.summary: Apparent half-life of the terminal disposition phase in C57BL/6 mouse plasma at 20 mg/kg, iv administered as single dose measured 24 hrs by UPLC-MS/MS analysis
Type: ADME, organism-based
experimental.conditions: read-out: t1/2 lambda z (converted)
reported.metric: half-life (h)
Answer format: numeric, h implied, no suffix.

Problem: Consider the compound C[C@H](Cc1ccc(OCc2cccc(Cl)c2)cc1)N(C)CC(=O)O and give its recorded half-life.
Result: 4.51

====

experiment.summary: Cmax in C57BL/6 mouse brain at 23.4 mg/kg, sc administered as single dose measured 24 hrs by UPLC-MS/MS analysis
Assay type: ADME, organism-based
Design: dose 23.4 mg/kg, route subcutaneous
reported.metric: Cmax
State the value, then name its unit.

Problem: Consider the compound CN(CC(=O)O)[C@H](CC#N)Cc1ccc(OCc2ccc(Cl)c(Cl)c2)cc1 and give its recorded Cmax.
Result: 91.3 ng/mL

====

experiment.summary: Tmax in C57BL/6 mouse plasma at 24.5 mg/kg, iv administered as single dose measured 24 hrs by UPLC-MS/MS analysis
Type: ADME, organism-based
reported.metric: Tmax (min)
Answer format: numeric, min implied, no suffix.

Problem: Consider the compound C[C@H](Cc1ccc(OCc2ccc(Br)c(Cl)c2)cc1)N(C)CC(=O)O and give its recorded Tmax.
Result: 5

====

experiment.summary: Metabolic stability in mouse liver microsomes assessed as parent compound remaining at 1 uM after 60 mins by UPLC-MS/MS analysis
Assay type: ADME, microsome
experimental.conditions: liver microsomes, read-out: Stability
reported.metric: remaining at 1 h, 1 µM (%)
Answer format: numeric, % implied, no suffix.

Problem: Consider the compound CN(CC(=O)O)[C@H](CC#N)Cc1ccc(OCc2ccc(Cl)c(Cl)c2)cc1 and give its recorded remaining at 1 h, 1 µM.
Result: 39

====

experiment.summary: Tmax in C57BL/6 mouse brain at 23.4 mg/kg, sc administered as single dose measured 24 hrs by UPLC-MS/MS analysis
Assay type: ADME, organism-based
reported.metric: Tmax
State the value, then name its unit.

Problem: Consider the compound CN(CC(=O)O)[C@H](CC#N)Cc1ccc(OCc2ccc(Cl)c(Cl)c2)cc1 and give its recorded Tmax.
Result: 1 h

====

experiment.summary: Tmax in C57BL/6 mouse plasma at 23.4 mg/kg, iv administered as single dose measured 24 hrs by UPLC-MS/MS analysis
Type: ADME, organism-based
reported.metric: Tmax (min)
Answer format: numeric, min implied, no suffix.

Problem: Consider the compound CN(CC(=O)O)[C@H](CC#N)Cc1ccc(OCc2ccc(Cl)c(Cl)c2)cc1 and give its recorded Tmax.
Result: 5

====

experiment.summary: Tmax in C57BL/6 mouse plasma at 10.8 mg/kg, iv administered as single dose measured 24 hrs by UPLC-MS/MS analysis
Type: ADME, organism-based
reported.metric: Tmax (min)
Answer format: numeric, min implied, no suffix.

Problem: Consider the molecule C#CCN(C)[C@H](C)Cc1ccccc1 and give its recorded Tmax.
Result: 5

====

Tested on: P-gp (MDR1)
experiment.summary: Efflux ratio of apparent permeability in MDCK2-MDR1 cells at 10 uM after 1 hr in absence of P-gp inhibitor verapamil by UPLC-MS/MS analysis
Type: ADME, cell-based, Canis lupus familiaris
experimental.conditions: dog, MDCK-MDR1
reported.metric: efflux ratio at 1 h, 10 µM

Problem: Give measured efflux ratio at 1 h, 10 µM for O=C(O)COCCN1CCN(C(c2ccccc2)c2ccc(Cl)cc2)CC1 (stereo not given) [CETIRIZINE] (P-gp (MDR1)).
Result: 4.12

Problem: Give measured efflux ratio at 1 h, 10 µM for C[C@H](Cc1ccc(OCc2ccc(Cl)c(Cl)c2)cc1)N(C)CC(=O)O (P-gp (MDR1)).
Result: 3.07

Problem: Give measured efflux ratio at 1 h, 10 µM for C[C@H](Cc1ccc(OCc2ccc(Br)c(Cl)c2)cc1)N(C)CC(=O)O (P-gp (MDR1)).
Result: 2.12

Problem: Give measured efflux ratio at 1 h, 10 µM for CN(CC(=O)O)[C@H](CC#N)Cc1ccc(OCc2ccc(Cl)c(Cl)c2)cc1 (P-gp (MDR1)).
Result: 1.14

Problem: Give measured efflux ratio at 1 h, 10 µM for C[C@H](Cc1ccc(OCc2cccc(Cl)c2)cc1)N(C)CC(=O)O (P-gp (MDR1)).
Result: 1.75

====

experiment.summary: Tmax in C57BL/6 mouse brain at 10.8 mg/kg, iv administered as single dose measured 24 hrs by UPLC-MS/MS analysis
Type: ADME, organism-based
reported.metric: Tmax (min)
Answer format: numeric, min implied, no suffix.

Problem: Consider the molecule C#CCN(C)[C@H](C)Cc1ccccc1 and give its recorded Tmax.
Result: 5

====

experiment.summary: Ratio of AUClast in brain to plasma in C57BL/6 mouse at 24.5 mg/kg, po administered as single dose measured 24 hrs by UPLC-MS/MS analysis
Type: ADME, organism-based
reported.metric: Kp at 24 h
Response field accepts a number only; no unit should be typed.

Problem: Consider the compound C[C@H](Cc1ccc(OCc2ccc(Br)c(Cl)c2)cc1)N(C)CC(=O)O and give its recorded Kp at 24 h.
Result: 0.12

====

experiment.summary: AUClast in C57BL/6 mouse brain at 10.8 mg/kg, iv administered as single dose measured 24 hrs by UPLC-MS/MS analysis
Type: ADME, organism-based
Parameters: dose 10.8 mg/kg, route intravenous, time 0 - last
reported.metric: AUC(0-t) at 24 h
State the value, then name its unit.

Problem: Consider the molecule C#CCN(C)[C@H](C)Cc1ccccc1 [SELEGILINE] and give its recorded AUC(0-t) at 24 h.
Result: 1390 ng·h/mL
